- SYSTEM NAME: KRas G12A (Homo sapiens, UniProt P01116, G12A);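 also: binding to KRas measured by TR-FRET displacement after one hour at room temperature, IC50 from a four-parameter fit of percent-of-control values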
- Sequence (P01116 1-169 isoform P01116-2 G12A): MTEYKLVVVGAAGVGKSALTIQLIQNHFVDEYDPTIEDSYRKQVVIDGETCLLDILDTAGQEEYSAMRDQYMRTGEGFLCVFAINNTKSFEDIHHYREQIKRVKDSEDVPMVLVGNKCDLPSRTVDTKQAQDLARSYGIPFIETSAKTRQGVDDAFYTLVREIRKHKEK
- EXPERIMENT SUMMARY: biochemical
pIC50: −log10 of the molar value.
Criterion: pIC50 meeting or surpassing 6. Met: 1. Not met: 0.

COMPOUND	CATEGORY LABEL
Fc1c(-c2cccc3cccc(F)c23)ncc2c(NCCc3c[nH]nn3)nc(OCC34CCCN3CCC4)nc12	0
Fc1c(-c2cccc3cccc(F)c23)ncc2c(N3CCCC4(CC4)C3)nc(OCC34CCCN3CCC4)nc12	0
C#Cc1c(F)ccc2cc(O)cc(-c3ncc4c(N5CCCC(O)C5)nc(OCCN(C)C)nc4c3F)c12 (stereo not shown)	1
Cc1cccc2cccc(-c3ncc4c(N5CCCC6(C5)NC(=O)NC6=O)nc(OCC56CCCN5CCC6)nc4c3F)c12 (stereo not shown)	1
O=C1CC2(CCCN(c3nc(OCC45CCCN4CCC5)nc4c(F)c(-c5cccc6cccc(Cl)c56)ncc34)C2)N1 (stereo not shown)	1
NC(=O)C(O)CNc1nc(OCC23CCCN2CCC3)nc2c(F)c(-c3cccc4cccc(Cl)c34)ncc12 (stereo not shown)	0

----------
- SYSTEM NAME: KRas G12C (Homo sapiens, UniProt P01116, G12C);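 also: binding to KRas assessed by TR-FRET displacement after one hour incubation at room temperature, potency fitted from percent-of-control values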
- Sequence (P01116 1-169 isoform P01116-2 G12C): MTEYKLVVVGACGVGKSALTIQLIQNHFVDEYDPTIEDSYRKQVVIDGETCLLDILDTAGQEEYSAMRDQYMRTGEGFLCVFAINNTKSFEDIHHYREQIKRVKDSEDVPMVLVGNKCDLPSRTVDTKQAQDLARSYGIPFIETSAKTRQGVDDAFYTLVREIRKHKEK
- EXPERIMENT SUMMARY: biochemical
Please note: IC50 exactly at 1 µM is criterion not met. Only values below 1 µM get criterion met.

COMPOUND	CATEGORY LABEL
CCc1c(F)ccc2cc(O)cc(-c3ncc4c(NCCN5C(=O)CNC5=O)nc(OC[C@@]56CCCN5C[C@H](F)C6)nc4c3F)c12	criterion met
CCc1c(F)ccc2cc(O)cc(-c3ncc4c(N5CCN6C(=O)NCC6C5)nc(OC[C@@]56CCCN5C[C@H](F)C6)nc4c3F)c12 (stereo partly shown)	criterion met
NC(=O)CCNc1nc(OCC23CCCN2CCC3)nc2c(F)c(-c3cccc4cccc(F)c34)ncc12	criterion not met
C#Cc1cccc2cccc(-c3ncc4c(N5CCCC(CS(N)(=O)=O)C5)nc(OCC56CCCN5CCC6)nc4c3F)c12 (stereo not shown)	criterion not met
Fc1c(-c2cccc3cccc(F)c23)ncc2c(N3CCCC(c4cc[nH]n4)C3)nc(OCC34CCCN3CCC4)nc12 (stereo not shown)	criterion not met
CCc1cccc2cccc(-c3ncc4c(N5CCOCC(C)(O)C5)nc(OCC56CCCN5CCC6)nc4c3F)c12 (stereo not shown)	criterion met
OC12CC(Nc3nc(OCC45CCCN4CCC5)nc4c(F)c(-c5cccc6cccc(F)c56)ncc34)(C1)C2	criterion not met

----------
Measured log10 IC50 by item
- SYSTEM NAME: KRas G12V (Homo sapiens, UniProt P01116, G12V);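 also: KRas binding measured by TR-FRET displacement at room temperature, IC50 fitted from percent of control values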
- Sequence (P01116 1-169 isoform P01116-2 G12V): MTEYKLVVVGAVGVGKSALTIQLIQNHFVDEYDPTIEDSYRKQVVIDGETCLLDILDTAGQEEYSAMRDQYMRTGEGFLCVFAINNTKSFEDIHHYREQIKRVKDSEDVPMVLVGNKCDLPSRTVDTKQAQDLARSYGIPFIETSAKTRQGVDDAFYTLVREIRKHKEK
- EXPERIMENT SUMMARY: biochemical
MEASUREMENT NAME: log10 IC50 (log10 of the value in nM)

COMPOUND	TEST VALUE
OCC1CCCCN(c2nc(OCC34CCCN3CCC4)nc3c(F)c(-c4cccc5cccc(F)c45)ncc23)C1 (stereo not shown) [Example 130]	4.03
Oc1nc(CCCNc2nc(OCC34CCCN3CCC4)nc3c(F)c(-c4cccc5cccc(Cl)c45)ncc23)n[nH]1 [Example 103]	3.26
CCc1c(F)ccc2cc(O)cc(-c3ncc4c(Nc5ccc6cnn(C)c6c5)nc(OC[C@@]56CCCN5C[C@H](F)C6)nc4c3F)c12 [Example 174]	0.60
CCc1c(F)ccc2cc(O)cc(-c3ncc4c(N5C[C@H](C)C[C@@H](O)C5)nc(OC[C@@]56CCCN5C[C@H](F)C6)nc4c3F)c12 [Example 187]	0.70
Fc1c(-c2cccc3cccc(F)c23)ncc2c(N3CCCC(c4nc[nH]n4)C3)nc(OCC34CCCN3CCC4)nc12 (stereo not shown) [Example 30]	2.90
CC(Nc1nc(OCC23CCCN2CCC3)nc2c(F)c(-c3cccc4cccc(F)c34)ncc12)c1c[nH]c2ncccc12 (stereo not shown) [Example 229]	3.49

----------
Measured IC50 by item
- SYSTEM NAME: KRas G13D (Homo sapiens, UniProt P01116, G13D)
- Construct: Biotinylated KRas (corresponding to amino acids 1-169, produced at Accelegan Inc.); biotin (biotinylated); purchased Accelegan Inc
- Sequence (P01116 1-169 isoform P01116-2 G13D): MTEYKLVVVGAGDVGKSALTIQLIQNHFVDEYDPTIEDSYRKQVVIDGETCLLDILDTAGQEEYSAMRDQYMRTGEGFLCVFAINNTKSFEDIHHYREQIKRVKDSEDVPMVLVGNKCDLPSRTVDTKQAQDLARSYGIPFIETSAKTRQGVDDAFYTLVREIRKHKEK
- EXPERIMENT SUMMARY: KRas binding assay (TR-FRET displacement);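 also: One-hour room temperature incubation before TR-FRET reading, IC50 from a four-parameter curve fit to percent-of-control data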

COMPOUND	UNIT ABBREV	IC50
NC(=O)CCNc1nc(OCC23CCCN2CCC3)nc2c(F)c(-c3cccc4cccc(F)c34)ncc12 [Example 225]	nM	23500
Fc1c(-c2cccc3cccc(F)c23)ncc2c(N3CCCC(c4cc[nH]n4)C3)nc(OCC34CCCN3CCC4)nc12 (stereo not drawn) [Example 131]	nM	6560
O=C(O)[C@H]1C[C@H](Nc2nc(OCC34CCCN3CCC4)nc3c(F)c(-c4cccc5cccc(F)c45)ncc23)C1 [Example 91]	nM	36600
CCc1c(F)ccc2cc(O)cc(-c3ncc4c(N5CCCCC5)nc(OC[C@@H]5C[C@@H](O)CN5C)nc4c3F)c12 [Example 6]	nM	21
O=C1NC(=O)C2CN(c3nc(OCC45CCCN4CCC5)nc4c(F)c(-c5cccc6cccc(F)c56)ncc34)CC12 (stereo not drawn) [Example 228]	nM	465
OCc1n[nH]c(CNc2nc(OCC34CCCN3CCC4)nc3c(F)c(-c4cccc5cccc(Cl)c45)ncc23)n1 [Example 105]	nM	13800
CNS(=O)(=O)C1CCCN(c2nc(OCC34CCCN3CCC4)nc3c(F)c(-c4cccc5cccc(F)c45)ncc23)C1 (stereo not drawn) [Example 237]	nM	8290
CCc1c(F)ccc2cc(O)cc(-c3ncc4c(NCc5n[nH]cc5C)nc(OC[C@@]56CCCN5C[C@H](F)C6)nc4c3F)c12 [Example 161]	nM	16
CCc1c(F)ccc2cccc(-c3ncc4c(N5CCCC6(CNC(=O)C6)C5)nc(OC[C@@]56CCCN5C[C@H](F)C6)nc4c3F)c12 (stereo partly drawn) [Example 37]	nM	88

----------
- System: phospho-ERK in MKN1 (WTdep) cells
- EXPERIMENT SUMMARY: Inhibition of KRas-mediated phosphorylation of ERK (in-cell western)
- Format: cell-based
- TEST CONTEXT: Homo sapiens, MKN-1, 3 hours compound, phospho-ERK normalized to GAPDH
- Procedure: Diluted compounds were then added in a final concentration of 0.5% DMSO. After 3 hours, 50 μL of 4.0% formaldehyde was added and the plates incubated at room temperature for 20 minutes. […] The amount of phospho-ERK was determined using an antibody specific for the phosphorylated form of ERK and compared to the amount of GAPDH. […] The plates were washed 3× with 150 uL PBS+0.1% Tween 20. Plates were imaged dry on a Li-COR Odyssey CLX plate reader. […]
Measured IC50 by item

MOLECULE	IC50 / nM
C#Cc1c(F)ccc2cccc(-c3ncc4c(N5CCC[C@@](C)(O)C5)nc(OCC56CCCN5CCC6)nc4c3F)c12	1380
CCc1c(F)ccc2cc(O)cc(-c3ncc4c(N5CCC[C@@](C)(O)C5)nc(OC[C@@H]5CCCN5C)nc4c3F)c12	24
CCc1c(F)ccc2cc(O)cc(-c3ncc4c(OCCCc5cccnc5)nc(OC[C@@]56CCCN5C[C@H](F)C6)nc4c3F)c12	2710
CCc1c(F)ccc2cc(O)cc(-c3ncc4c(NCC5CNC(=O)C5)nc(OC[C@@]56CCCN5C[C@H](F)C6)nc4c3F)c12 (stereo partly drawn)	230
CCc1c(F)ccc2cc(O)cc(-c3ncc4c(N5CCCCC5)nc(OC[C@@]56CCCN5C[C@H](O)C6)nc4c3F)c12	32
CCc1c(F)ccc2cc(O)cc(-c3ncc4c(N5CCCC(C(N)=O)C5)nc(OC[C@@]56CCCN5C[C@H](F)C6)nc4c3F)c12 (stereo partly drawn)	65

----------
- System: pERK in MKN1 cells
- EXPERIMENT SUMMARY: Inhibition of KRas phosphorylation of ERK (Cisbio HTRF pERK assay)
- TEST CONTEXT: Homo sapiens, MKN-1, 3 h, read-out: Inhibition (HTRF IC50) of KRas-mediated Phosphorylation of ERK, MKN1
MEASUREMENT NAME: IC50

COMPOUND	SYSTEM NAME	MEASUREMENT NAME	TEST VALUE
CCc1c(F)ccc2cc(O)cc(-c3ncc4c(N5CCCC6(COC(=O)N6)C5)nc(OC[C@@]56CCCN5C[C@H](F)C6)nc4c3F)c12 (some centres unmarked)	pERK in MKN1 cells	IC50	80 nM
CCc1cccc2cc(O)c(F)c(-c3ncc4c(N5CCC[C@@](C)(O)C5)nc(OC[C@@]56CCCN5C[C@H](F)C6)nc4c3F)c12	pERK in MKN1 cells	IC50	80 nM
CCc1c(F)ccc2cc(O)cc(-c3ncc4c(N5C[C@H](O)C[C@@H](F)C5)nc(OC[C@@]56CCCN5C[C@H](F)C6)nc4c3F)c12	pERK in MKN1 cells	IC50	49 nM
CCc1c(F)ccc2cc(O)cc(-c3ncc4c(N5C[C@@H]6C(=O)NNC(=O)[C@@H]6C5)nc(OC[C@@]56CCCN5C[C@H](F)C6)nc4c3F)c12	pERK in MKN1 cells	IC50	≥ 10000 nM
CCc1c(F)ccc2cc(O)cc(-c3ncc4c(N5C[C@@H]6C[C@H](C5)[C@H](O)C6)nc(OCC5(CN6CCCC6)CC5)nc4c3F)c12	pERK in MKN1 cells	IC50	10 nM
C#Cc1c(F)ccc2cc(O)cc(-c3ncc4c(N5C[C@@H]6C[C@H](C5)[C@H](O)C6)nc(OC[C@@]56CCCN5C[C@H](F)C6)nc4c3F)c12	pERK in MKN1 cells	IC50	8 nM
CCc1c(F)ccc2cc(O)cc(-c3ncc4c(N5CCC[C@]6(C5)C[C@@H](O)C6)nc(OC[C@@]56CCCN5C[C@H](F)C6)nc4c3F)c12 (single isomer, unassigned)	pERK in MKN1 cells	IC50	3 nM
OCC1COCCN(c2nc(OC[C@@]34CCCN3C[C@H](F)C4)nc3c(F)c(-c4cc(O)cc5ccc(F)c(Cl)c45)ncc23)C1 (some centres unmarked)	pERK in MKN1 cells	IC50	56 nM
CCc1c(F)ccc2cc(O)cc(-c3ncc4c(N5CCCC6(CC(=O)N6)C5)nc(OCC5(CN(C)C)CC5)nc4c3F)c12 (centres unmarked)	pERK in MKN1 cells	IC50	221 nM
CCc1c(F)ccc2cc(O)cc(-c3ncc4c(N5CCCC(CO)C5)nc(OC[C@@]56CCCN5C[C@H](F)C6)nc4c3F)c12 (some centres unmarked)	pERK in MKN1 cells	IC50	57 nM
CCc1c(F)ccc2cc(O)cc(-c3ncc4c(N5CCCC6(CCS(=O)(=O)C6)C5)nc(OC[C@@]56CCCN5C[C@H](F)C6)nc4c3F)c12 (some centres unmarked)	pERK in MKN1 cells	IC50	7 nM
CN(C)C(=O)c1cc2n(n1)CCCN(c1nc(OC[C@@]34CCCN3C[C@H](F)C4)nc3c(F)c(-c4cc(O)cc5ccc(F)c(Cl)c45)ncc13)C2	pERK in MKN1 cells	IC50	84 nM
CCc1c(F)ccc2cc(O)cc(-c3ncc4c(N5CCCCC(O)C5)nc(OC[C@@]56CCCN5C[C@H](F)C6)nc4c3F)c12 (some centres unmarked)	pERK in MKN1 cells	IC50	98 nM
CCc1c(F)ccc2cc(O)cc(-c3ncc4c(NCC5CC(=O)NC5=O)nc(OC[C@@]56CCCN5C[C@H](F)C6)nc4c3F)c12 (some centres unmarked)	pERK in MKN1 cells	IC50	58 nM
CCc1c(F)ccc2cc(O)cc(-c3ncc4c(N5CC(c6ccncc6)C5)nc(OC[C@@]56CCCN5C[C@H](F)C6)nc4c3F)c12	pERK in MKN1 cells	IC50	41 nM
O=C1NC(=O)C2(CCCN(c3nc(OC[C@@]45CCCN4C[C@H](F)C5)nc4c(F)c(-c5cc(O)cc6ccc(F)c(Br)c56)ncc34)C2)N1 (some centres unmarked)	pERK in MKN1 cells	IC50	157 nM
O=C1NC(=O)C2CN(c3nc(OC[C@@]45CCCN4C[C@H](F)C5)nc4c(F)c(-c5cc(O)cc6ccc(F)c(Br)c56)ncc34)CC12 (some centres unmarked)	pERK in MKN1 cells	IC50	55 nM
CCc1c(F)ccc2cc(O)cc(-c3ncc4c(N5CCCC6(CNS(=O)(=O)N6)C5)nc(OCC5(CN(C)C)CC5)nc4c3F)c12 (centres unmarked)	pERK in MKN1 cells	IC50	26 nM
CCc1c(F)ccc2cc(O)cc(-c3ncc4c(N5CCCC6(C5)CS(=O)(=O)C6)nc(OC[C@@]56CCCN5C[C@H](F)C6)nc4c3F)c12	pERK in MKN1 cells	IC50	49 nM
CCc1c(F)ccc2cc(O)cc(-c3ncc4c(N5C[C@H](O)C[C@@H](O)C5)nc(OC[C@@]56CCCN5C[C@H](F)C6)nc4c3F)c12	pERK in MKN1 cells	IC50	53 nM
Cc1c(F)ccc2cc(O)cc(-c3ncc4c(N5CCCC(CS(N)(=O)=O)C5)nc(OC[C@@]56CCCN5C[C@H](F)C6)nc4c3F)c12 (some centres unmarked)	pERK in MKN1 cells	IC50	18 nM
O=C1CC2(CCCN(c3nc(OC[C@@]45CCCN4C[C@H](F)C5)nc4c(F)c(-c5cc(O)cc6ccc(F)c(F)c56)ncc34)C2)CN1 (some centres unmarked)	pERK in MKN1 cells	IC50	786 nM
CCc1c(F)ccc2cc(O)cc(-c3ncc4c(N5CCCn6nc(C(=O)N7CCOCC7)cc6C5)nc(OC[C@@]56CCCN5C[C@H](F)C6)nc4c3F)c12	pERK in MKN1 cells	IC50	14 nM
